Would you kindly list viability at 72 h, 20 µM for each of these molecules?
Experiment: Cytotoxicity against human HEK293 cells assessed as cell viability at 20 uM measured after 72 hrs by MTT assay
Format: cell-based
Conditions: read-out: Activity
A number alone suffices; assume %.

Asked: Find the recorded viability at 72 h, 20 µM belonging to CC[C@@H](C)[C@H](NC(=O)c1cc(=O)c2c(OCc3ccc(Br)cc3)cccc2o1)C(=O)N[C@@H](CC(C)C)C(=O)OC and report it.
Given back: 101

Asked: Likewise for CC[C@@H](C)[C@H](NC(=O)c1cc(=O)c2c(OCc3ccccc3Br)cccc2o1)C(=O)N[C@@H](CC(C)C)C(=O)OC ?
Given back: 104

Asked: Now give it for CC[C@@H](C)[C@H](NC(=O)c1cc(=O)c2c(OCc3ccccc3Br)cccc2o1)C(=O)N[C@H](C(=O)OC)C(C)C too.
Given back: 102

Asked: How about this molecule: CC[C@@H](C)[C@H](NC(=O)c1cc(=O)c2c(OCc3ccc(Br)cc3)cccc2o1)C(=O)N[C@H](C(=O)OC)C(C)C
Given back: 89

###

I'd be grateful if you could share measured pEC50 for these entries.
Biological target: Broad substrate specificity ATP-binding cassette transporter ABCG2 (Homo sapiens)
Sequence (Q9UNQ0 whole entry): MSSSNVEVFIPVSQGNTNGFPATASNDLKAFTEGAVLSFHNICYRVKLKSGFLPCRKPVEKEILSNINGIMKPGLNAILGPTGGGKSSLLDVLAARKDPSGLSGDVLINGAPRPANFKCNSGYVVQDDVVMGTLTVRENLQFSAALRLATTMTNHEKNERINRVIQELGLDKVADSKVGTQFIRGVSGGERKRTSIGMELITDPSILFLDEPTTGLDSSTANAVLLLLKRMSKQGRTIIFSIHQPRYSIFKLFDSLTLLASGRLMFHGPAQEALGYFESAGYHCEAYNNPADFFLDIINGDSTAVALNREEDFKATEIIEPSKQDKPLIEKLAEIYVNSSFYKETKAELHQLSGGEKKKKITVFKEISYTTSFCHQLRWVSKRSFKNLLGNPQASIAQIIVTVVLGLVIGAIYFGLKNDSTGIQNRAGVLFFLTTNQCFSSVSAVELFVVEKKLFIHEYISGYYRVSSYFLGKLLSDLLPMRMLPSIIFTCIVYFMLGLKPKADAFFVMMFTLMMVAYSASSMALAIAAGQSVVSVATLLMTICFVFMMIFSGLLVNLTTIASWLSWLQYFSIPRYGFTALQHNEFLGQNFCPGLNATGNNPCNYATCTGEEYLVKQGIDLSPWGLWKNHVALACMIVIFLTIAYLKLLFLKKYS
Test: Inhibition of ABCG2 (unknown origin) in HEK293 cells assessed as maximal inhibition of mitoxantrone efflux by fluorescence based flow cytometry
Note on pEC50: it is the negative log10 of concentration, concentration in mol/L.

Asked: Endpoint output: pEC50 of CC[C@@H](C)[C@H](NC(=O)c1cc(=O)c2c(OCc3ccc(Br)cc3)cccc2o1)C(=O)N[C@@H](CC(C)C)C(=O)OC . Value?
Given back: 6.96

Asked: Consider next the compound COC(=O)[C@@H](Cc1c[nH]c2ccccc12)NC(=O)c1cc(=O)c2c(OCc3ccc(Br)cc3)cccc2o1 in the same way.
Given back: 6.54

Asked: One more compound: COC(=O)[C@@H](NC(=O)c1cc(=O)c2c(OCc3ccccc3Br)cccc2o1)C(C)C
Given back: 7.30

Asked: Now give it for COC(=O)[C@H](Cc1ccccc1)NC(=O)c1cc(=O)c2c(OCc3ccccc3Br)cccc2o1 too.
Given back: 7.00

Asked: // same read-out, input: CC[C@@H](C)[C@H](NC(=O)c1cc(=O)c2c(OCc3ccc(Br)cc3)cccc2o1)C(=O)N[C@H](C(=O)OC)C(C)C
Given back: 6.60

###

Target: UniProt P33527
Sequence (P33527 whole entry): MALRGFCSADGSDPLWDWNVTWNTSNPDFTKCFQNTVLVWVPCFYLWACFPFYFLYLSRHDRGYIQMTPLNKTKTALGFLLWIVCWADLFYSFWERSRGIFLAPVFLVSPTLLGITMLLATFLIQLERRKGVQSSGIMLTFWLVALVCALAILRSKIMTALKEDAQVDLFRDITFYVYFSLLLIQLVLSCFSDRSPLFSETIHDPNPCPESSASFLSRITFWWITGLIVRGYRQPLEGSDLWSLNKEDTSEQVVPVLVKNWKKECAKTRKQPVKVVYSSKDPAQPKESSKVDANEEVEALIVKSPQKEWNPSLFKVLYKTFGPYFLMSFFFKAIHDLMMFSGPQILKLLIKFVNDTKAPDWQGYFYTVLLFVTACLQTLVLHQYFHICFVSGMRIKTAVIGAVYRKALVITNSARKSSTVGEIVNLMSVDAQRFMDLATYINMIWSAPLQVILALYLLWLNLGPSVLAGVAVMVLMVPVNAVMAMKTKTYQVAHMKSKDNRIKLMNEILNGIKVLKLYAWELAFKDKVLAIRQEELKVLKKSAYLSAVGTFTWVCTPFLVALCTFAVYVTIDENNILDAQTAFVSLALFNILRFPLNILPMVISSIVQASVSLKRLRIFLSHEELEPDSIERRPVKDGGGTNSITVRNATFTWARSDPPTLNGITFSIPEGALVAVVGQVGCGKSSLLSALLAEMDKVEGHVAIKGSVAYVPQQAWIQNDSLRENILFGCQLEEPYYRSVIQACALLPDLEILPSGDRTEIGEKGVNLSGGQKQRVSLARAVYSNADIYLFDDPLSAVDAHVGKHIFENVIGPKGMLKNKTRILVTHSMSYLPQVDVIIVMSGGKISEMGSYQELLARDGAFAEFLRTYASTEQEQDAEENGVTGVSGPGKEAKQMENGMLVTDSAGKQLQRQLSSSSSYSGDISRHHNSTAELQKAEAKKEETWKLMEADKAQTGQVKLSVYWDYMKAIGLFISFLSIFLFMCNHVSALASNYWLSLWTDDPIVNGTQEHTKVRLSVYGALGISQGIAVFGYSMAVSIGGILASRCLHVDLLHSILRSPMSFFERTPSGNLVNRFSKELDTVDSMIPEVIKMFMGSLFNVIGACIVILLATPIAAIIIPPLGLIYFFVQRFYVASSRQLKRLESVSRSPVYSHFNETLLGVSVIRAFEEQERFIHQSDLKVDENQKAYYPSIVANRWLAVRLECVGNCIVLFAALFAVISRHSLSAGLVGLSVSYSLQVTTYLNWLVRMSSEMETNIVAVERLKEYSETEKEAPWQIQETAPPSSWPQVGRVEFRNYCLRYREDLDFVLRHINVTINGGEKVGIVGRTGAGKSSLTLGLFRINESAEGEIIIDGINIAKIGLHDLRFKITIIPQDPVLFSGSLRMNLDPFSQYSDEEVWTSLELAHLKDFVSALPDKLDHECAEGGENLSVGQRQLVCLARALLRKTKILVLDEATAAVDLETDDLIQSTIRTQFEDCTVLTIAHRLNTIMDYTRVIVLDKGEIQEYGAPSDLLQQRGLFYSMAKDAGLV
Assay: Inhibition of ABCC1 (unknown origin) expressed in Flp-In-293 cells assessed as maximal inhibition at 1 uM by FACS based flow cytometry
Give measured inhibition at 1 µM for each item. Keep answers brief.
Note: state the figure and append the unit.

Asked: For the compound CC[C@@H](C)[C@H](NC(=O)c1cc(=O)c2c(OCc3ccc(Br)cc3)cccc2o1)C(=O)N[C@@H](CC(C)C)C(=O)OC , what inhibition at 1 µM is on record?
Given back: 11%

Asked: Note, next up: COC(=O)[C@@H](NC(=O)c1cc(=O)c2c(OCc3ccccc3Br)cccc2o1)C(C)C
Given back: 13%

Asked: Next up: COC(=O)[C@H](Cc1c[nH]c2ccccc12)NC(=O)c1cc(=O)c2c(OCc3ccccc3Br)cccc2o1
Given back: 23%

Asked: Entry to check: COC(=O)[C@H](Cc1c[nH]c2ccccc12)NC(=O)c1cc(=O)c2c(OCc3ccc(Br)cc3)cccc2o1
Given back: 10.3%

Asked: Same again, this time with CC[C@@H](C)[C@H](NC(=O)c1cc(=O)c2c(OCc3ccc(Br)cc3)cccc2o1)C(=O)N[C@H](C(=O)OC)C(C)C
Given back: 12%

Asked: And for COC(=O)[C@@H](Cc1c[nH]c2ccccc12)NC(=O)c1cc(=O)c2c(OCc3ccc(Br)cc3)cccc2o1 ?
Given back: 11.9%

Asked: // next record CC[C@@H](C)[C@H](NC(=O)c1cc(=O)c2c(OCc3ccccc3Br)cccc2o1)C(=O)N[C@@H](CC(C)C)C(=O)OC
Given back: 10%

Asked: Could you do the same for CC[C@@H](C)[C@H](NC(=O)c1cc(=O)c2c(OCc3ccccc3Br)cccc2o1)C(=O)OC , please?
Given back: 5%

Asked: Try this compound too: COC(=O)[C@H](Cc1ccccc1)NC(=O)c1cc(=O)c2c(OCc3ccccc3Br)cccc2o1
Given back: 26%

Asked: Now consider CC[C@@H](C)[C@H](NC(=O)c1cc(=O)c2c(OCc3ccccc3Br)cccc2o1)C(=O)N[C@H](C(=O)OC)C(C)C and answer again.
Given back: 11%

Asked: # repeat for COC(=O)[C@H](CC(C)C)NC(=O)c1cc(=O)c2c(OCc3ccccc3Br)cccc2o1
Given back: 20%

Asked: Continue with COC(=O)[C@H](Cc1ccccc1)NC(=O)c1cc(=O)c2c(OCc3ccc(Br)cc3)cccc2o1
Given back: 23%

###

So I've got a bunch of compounds here, and I need their inhibition (INH) values.
Molecular target: UniProt:Q9UNQ0
Assay: Inhibition of ABCG2 (unknown origin) expressed in HEK293 cells assessed as maximal inhibition at 1 uM by FACS based flow cytometry
Settings: hek293, 1 µM
# do not omit the unit; it follows the number

Asked: # input compound: COC(=O)[C@@H](Cc1c[nH]c2ccccc12)NC(=O)c1cc(=O)c2c(OCc3ccc(Br)cc3)cccc2o1 ; wanted: its inhibition (INH)
Given back: 85%

Asked: Queued: CC[C@@H](C)[C@H](NC(=O)c1cc(=O)c2c(OCc3ccccc3Br)cccc2o1)C(=O)OC
Given back: 78%

Asked: Now the compound CC[C@@H](C)[C@H](NC(=O)c1cc(=O)c2c(OCc3ccccc3Br)cccc2o1)C(=O)N[C@H](C(=O)OC)C(C)C
Given back: 85%

Asked: Cool, now COC(=O)[C@@H](NC(=O)c1cc(=O)c2c(OCc3ccccc3Br)cccc2o1)C(C)C
Given back: 87%

Asked: And CC[C@@H](C)[C@H](NC(=O)c1cc(=O)c2c(OCc3ccccc3Br)cccc2o1)C(=O)N[C@@H](CC(C)C)C(=O)OC ?
Given back: 83%

Asked: Then this compound: CC[C@@H](C)[C@H](NC(=O)c1cc(=O)c2c(OCc3ccc(Br)cc3)cccc2o1)C(=O)N[C@H](C(=O)OC)C(C)C
Given back: 72%

Asked: Please answer likewise for COC(=O)[C@H](CC(C)C)NC(=O)c1cc(=O)c2c(OCc3ccccc3Br)cccc2o1
Given back: 115%

Asked: Queued: COC(=O)[C@H](Cc1c[nH]c2ccccc12)NC(=O)c1cc(=O)c2c(OCc3ccc(Br)cc3)cccc2o1
Given back: 96%

Asked: Follow-up entry: COC(=O)[C@H](Cc1c[nH]c2ccccc12)NC(=O)c1cc(=O)c2c(OCc3ccccc3Br)cccc2o1
Given back: 94%

Asked: How about this compound: CC[C@@H](C)[C@H](NC(=O)c1cc(=O)c2c(OCc3ccc(Br)cc3)cccc2o1)C(=O)N[C@@H](CC(C)C)C(=O)OC
Given back: 52%

###

Target: ABCB1 (Homo sapiens)
Sequence (P08183 whole entry): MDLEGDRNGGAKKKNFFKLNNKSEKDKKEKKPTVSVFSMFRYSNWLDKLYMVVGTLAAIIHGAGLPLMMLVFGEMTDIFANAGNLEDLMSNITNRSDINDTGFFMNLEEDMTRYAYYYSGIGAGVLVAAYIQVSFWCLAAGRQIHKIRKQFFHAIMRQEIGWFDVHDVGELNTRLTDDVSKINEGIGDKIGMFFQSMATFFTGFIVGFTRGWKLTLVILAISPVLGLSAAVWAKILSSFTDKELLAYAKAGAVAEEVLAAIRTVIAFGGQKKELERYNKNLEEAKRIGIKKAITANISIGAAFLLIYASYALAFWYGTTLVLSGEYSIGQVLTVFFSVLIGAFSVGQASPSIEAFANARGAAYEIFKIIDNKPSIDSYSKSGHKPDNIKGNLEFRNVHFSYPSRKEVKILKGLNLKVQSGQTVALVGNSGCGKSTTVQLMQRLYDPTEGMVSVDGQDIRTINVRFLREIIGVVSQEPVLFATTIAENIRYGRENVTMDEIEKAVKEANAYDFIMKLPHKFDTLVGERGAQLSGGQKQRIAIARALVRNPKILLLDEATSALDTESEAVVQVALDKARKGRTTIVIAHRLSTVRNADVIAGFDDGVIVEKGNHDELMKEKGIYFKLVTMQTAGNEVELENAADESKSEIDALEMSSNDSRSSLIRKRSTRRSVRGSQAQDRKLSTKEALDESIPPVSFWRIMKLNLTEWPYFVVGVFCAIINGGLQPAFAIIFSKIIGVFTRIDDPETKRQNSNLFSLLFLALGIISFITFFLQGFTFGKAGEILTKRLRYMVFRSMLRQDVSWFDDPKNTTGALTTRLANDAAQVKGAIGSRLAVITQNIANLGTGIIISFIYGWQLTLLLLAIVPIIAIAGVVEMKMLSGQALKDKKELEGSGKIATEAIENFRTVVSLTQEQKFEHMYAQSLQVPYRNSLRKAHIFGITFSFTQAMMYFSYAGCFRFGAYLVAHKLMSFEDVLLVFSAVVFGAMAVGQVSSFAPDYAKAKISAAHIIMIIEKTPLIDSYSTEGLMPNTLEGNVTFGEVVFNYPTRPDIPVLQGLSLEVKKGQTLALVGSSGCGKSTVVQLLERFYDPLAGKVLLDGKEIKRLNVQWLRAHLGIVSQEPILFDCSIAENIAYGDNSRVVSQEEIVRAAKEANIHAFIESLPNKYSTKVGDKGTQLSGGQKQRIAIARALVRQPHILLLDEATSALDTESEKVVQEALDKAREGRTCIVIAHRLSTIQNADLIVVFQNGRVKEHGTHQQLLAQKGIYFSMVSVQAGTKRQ
Assay: Inhibition of ABCB1 (unknown origin) expressed in NIH/3T3 cells assessed as maximal inhibition at 10 uM by FACS based flow cytometry
Exercise: state measured inhibition at 10 µM for each of the compounds provided.
Express your answer in %, writing the number without its unit.

Asked: # value lookup — system ABCB1 (Homo sapiens), readout inhibition at 10 µM, item COC(=O)[C@H](Cc1ccccc1)NC(=O)c1cc(=O)c2c(OCc3ccccc3Br)cccc2o1
Given back: 6

Asked: Now the compound CC[C@@H](C)[C@H](NC(=O)c1cc(=O)c2c(OCc3ccc(Br)cc3)cccc2o1)C(=O)N[C@H](C(=O)OC)C(C)C
Given back: 11

Asked: Continue with COC(=O)[C@H](CC(C)C)NC(=O)c1cc(=O)c2c(OCc3ccccc3Br)cccc2o1
Given back: 5

Asked: Also, CC[C@@H](C)[C@H](NC(=O)c1cc(=O)c2c(OCc3ccccc3Br)cccc2o1)C(=O)N[C@H](C(=O)OC)C(C)C please.
Given back: 0

Asked: What would you report for CC[C@@H](C)[C@H](NC(=O)c1cc(=O)c2c(OCc3ccccc3Br)cccc2o1)C(=O)N[C@@H](CC(C)C)C(=O)OC ?
Given back: 2

Asked: # iterate: CC[C@@H](C)[C@H](NC(=O)c1cc(=O)c2c(OCc3ccc(Br)cc3)cccc2o1)C(=O)N[C@@H](CC(C)C)C(=O)OC
Given back: 6

Asked: Item: COC(=O)[C@@H](Cc1c[nH]c2ccccc12)NC(=O)c1cc(=O)c2c(OCc3ccc(Br)cc3)cccc2o1
Given back: 6

Asked: Input COC(=O)[C@H](Cc1c[nH]c2ccccc12)NC(=O)c1cc(=O)c2c(OCc3ccccc3Br)cccc2o1
Given back: 5

Asked: One more compound: COC(=O)[C@H](Cc1c[nH]c2ccccc12)NC(=O)c1cc(=O)c2c(OCc3ccc(Br)cc3)cccc2o1
Given back: 6

Asked: Param item: COC(=O)[C@H](Cc1ccccc1)NC(=O)c1cc(=O)c2c(OCc3ccc(Br)cc3)cccc2o1
Given back: 7

Asked: And for COC(=O)[C@@H](NC(=O)c1cc(=O)c2c(OCc3ccccc3Br)cccc2o1)C(C)C ?
Given back: 7
